target: Cav2.3 (Homo sapiens); assay: Human Cav2.3 channel calcium-influx assay; assay type: cell-based; conditions: Fluo8 fluorescence, HEK-293 T-Rex/Kir2.1/Cav2.3e cells, without pluronic acid, read-out: Cav2.3 (pIC50) (converted)
Sequence (Q15878 whole entry, looked up): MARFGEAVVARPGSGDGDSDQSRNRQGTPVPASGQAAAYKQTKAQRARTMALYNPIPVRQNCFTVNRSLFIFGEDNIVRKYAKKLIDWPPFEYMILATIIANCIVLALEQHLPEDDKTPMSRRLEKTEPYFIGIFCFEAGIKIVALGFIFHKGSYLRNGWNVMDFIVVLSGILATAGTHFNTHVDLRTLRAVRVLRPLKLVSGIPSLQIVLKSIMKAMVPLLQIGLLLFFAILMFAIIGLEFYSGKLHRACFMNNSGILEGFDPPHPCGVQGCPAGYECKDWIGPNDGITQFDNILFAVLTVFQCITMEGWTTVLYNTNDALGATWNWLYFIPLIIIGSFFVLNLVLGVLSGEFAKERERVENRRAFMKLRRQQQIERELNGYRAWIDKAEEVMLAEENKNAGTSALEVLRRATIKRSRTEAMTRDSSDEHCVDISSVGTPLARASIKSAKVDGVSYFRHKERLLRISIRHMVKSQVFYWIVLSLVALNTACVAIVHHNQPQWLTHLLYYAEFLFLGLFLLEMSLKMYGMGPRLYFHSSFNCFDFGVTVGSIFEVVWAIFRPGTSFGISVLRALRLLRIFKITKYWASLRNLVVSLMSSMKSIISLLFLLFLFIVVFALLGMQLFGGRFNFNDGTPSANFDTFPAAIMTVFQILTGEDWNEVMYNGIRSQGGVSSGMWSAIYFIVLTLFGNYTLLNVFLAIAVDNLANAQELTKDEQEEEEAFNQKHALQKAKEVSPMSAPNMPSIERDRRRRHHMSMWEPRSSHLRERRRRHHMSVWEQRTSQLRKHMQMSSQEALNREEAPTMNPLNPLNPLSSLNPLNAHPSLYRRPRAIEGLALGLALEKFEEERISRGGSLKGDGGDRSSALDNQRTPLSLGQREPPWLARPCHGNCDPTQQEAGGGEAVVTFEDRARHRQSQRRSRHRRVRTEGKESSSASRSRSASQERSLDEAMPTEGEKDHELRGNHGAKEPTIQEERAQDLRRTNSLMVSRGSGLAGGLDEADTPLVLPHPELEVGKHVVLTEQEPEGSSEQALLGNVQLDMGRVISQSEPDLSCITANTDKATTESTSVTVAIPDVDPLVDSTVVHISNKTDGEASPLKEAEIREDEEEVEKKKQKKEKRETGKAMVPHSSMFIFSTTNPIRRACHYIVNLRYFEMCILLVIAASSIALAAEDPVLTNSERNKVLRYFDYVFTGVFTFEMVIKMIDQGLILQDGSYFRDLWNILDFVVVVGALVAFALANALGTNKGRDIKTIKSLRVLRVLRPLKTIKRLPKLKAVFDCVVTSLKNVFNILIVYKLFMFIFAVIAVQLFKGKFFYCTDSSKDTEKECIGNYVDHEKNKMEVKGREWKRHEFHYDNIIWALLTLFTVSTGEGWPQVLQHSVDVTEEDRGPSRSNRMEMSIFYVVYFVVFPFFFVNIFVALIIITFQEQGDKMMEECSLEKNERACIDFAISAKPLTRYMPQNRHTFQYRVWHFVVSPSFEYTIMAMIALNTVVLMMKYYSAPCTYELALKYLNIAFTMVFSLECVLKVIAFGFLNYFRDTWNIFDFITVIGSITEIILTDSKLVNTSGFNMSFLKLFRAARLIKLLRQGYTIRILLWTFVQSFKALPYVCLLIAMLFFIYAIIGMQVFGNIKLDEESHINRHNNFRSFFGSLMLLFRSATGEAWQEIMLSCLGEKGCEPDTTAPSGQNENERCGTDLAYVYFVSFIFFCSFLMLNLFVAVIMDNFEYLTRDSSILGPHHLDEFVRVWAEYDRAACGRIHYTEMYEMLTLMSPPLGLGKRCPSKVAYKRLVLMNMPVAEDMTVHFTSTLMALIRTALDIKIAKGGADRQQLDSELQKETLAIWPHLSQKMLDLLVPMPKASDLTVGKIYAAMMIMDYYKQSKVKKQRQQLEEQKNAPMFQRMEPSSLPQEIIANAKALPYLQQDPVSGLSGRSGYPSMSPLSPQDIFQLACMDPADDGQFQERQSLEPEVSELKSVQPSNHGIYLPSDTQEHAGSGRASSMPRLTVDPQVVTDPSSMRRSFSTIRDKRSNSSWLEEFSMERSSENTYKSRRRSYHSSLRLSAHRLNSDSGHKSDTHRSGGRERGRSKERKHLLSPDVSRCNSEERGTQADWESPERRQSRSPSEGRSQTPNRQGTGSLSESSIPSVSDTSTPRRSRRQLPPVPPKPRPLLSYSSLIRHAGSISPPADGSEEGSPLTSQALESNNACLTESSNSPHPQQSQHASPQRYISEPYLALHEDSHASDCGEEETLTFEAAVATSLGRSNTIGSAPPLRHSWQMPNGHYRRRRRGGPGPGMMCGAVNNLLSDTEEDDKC
METRIC_NAME: IC50 (µM)
Hi! Could you send only the number? It should be in µM, unit omitted.

Solved cases (5 shown):
{"columns": ["COMPOUND", "NUMBER"],
 "data": [
  ["CCN(C(c1ccc(F)cc1)C(F)(F)F)S(=O)(=O)c1csc(C#N)n1 (centres unmarked)", 0.24],
  ["CN([C@H](c1ccc(Cl)cc1)C(F)(F)F)S(=O)(=O)c1ccn2ccnc2c1", 0.24],
  ["CN([C@H](c1ccc(Cl)cc1)C(F)(F)F)S(=O)(=O)c1ccc(O)nn1", 1.05],
  ["CCN([C@H](c1ccc(F)cc1)C(F)(F)F)S(=O)(=O)c1cnnc(OC)c1", 0.166],
  ["CCN([C@H](c1ccc(F)cc1)C(F)(F)F)S(=O)(=O)c1cc2cn[nH]c2cn1", 0.331]
]}

**Query** Identify measured IC50 associated with CCN([C@@H](c1ccc(F)cc1)C(F)(F)F)S(=O)(=O)c1cncc(F)c1
**Result** 3.55

**Query** Identify measured IC50 associated with CCN(C(c1ccc(F)cc1)C(F)(F)F)S(=O)(=O)c1cncc(C(C)=O)c1 (centres unmarked)
**Result** 0.132

**Query** Identify measured IC50 associated with CCN([C@H](c1ccc(F)cc1)C(F)(F)F)S(=O)(=O)c1nc2ccccn2c1Cl
**Result** 4.17

Value source: patent US20250115569A1
